Values from ChEMBL document CHEMBL5107975

# method.notes: Elimination half life in human administered po
# Assay type: ADME
# test.settings: read-out: LambdaZ (converted)
measured.metric: half-life (h)

{"test.smiles": "C=C1[C@H](CO)[C@@H](O)C[C@@H]1n1cnc2c(=O)[nH]c(N)nc21.O", "recorded.value": 128}

* * *

# method.notes: Drug elimination in human urine assessed as unchanged drug administered po relative to control
# Type: ADME, organism-based
# test.settings: read-out: Drug excretion

{"test.smiles": "C=C1[C@H](CO)[C@@H](O)C[C@@H]1n1cnc2c(=O)[nH]c(N)nc21.O", "result.unit": "%", "dose excreted": 62}

* * *

# method.notes: Oral bioavailability in human relative to control
# Type: ADME, organism-based
# test.settings: in vivo

{"compound": "C=C1[C@H](CO)[C@@H](O)C[C@@H]1n1cnc2c(=O)[nH]c(N)nc21.O [ENTECAVIR]", "bioavailability [%]": 100}
